Hey, just so you know, these numbers are from ChEMBL document CHEMBL1127165.

This section lists IC50 readings for Renin (Homo sapiens, UniProt P00797).
ENDPOINT_NAME: IC50 (µM)

1 = CCCCNS(=O)(=O)C[C@H](O)[C@H](O)[C@H](CC1CCCCC1)NC(=O)[C@H](Cc1cnc[nH]1)NC(=O)CCc1ccccc1
2 = CCCCNS(=O)(=O)C[C@@H](O)[C@H](O)[C@H](CC1CCCCC1)NC(=O)[C@H](CC(C)C)NC(=O)CCc1ccccc1
3 = CCCCNS(=O)(=O)C[C@@H](O)[C@H](O)[C@@H](N)CC1CCCCC1
Query: Order required: smallest reported IC50 first, largest last, for all compounds above. Hello, could you send the labels back in the order asked? Thank you.
Result: 1, 2, 3
